- Assay overview: Estimation of loading and daily maintenance doses and NLME model simulations
- Design: species or system female rabbits
- Experimental context: oral, to maintain serum concentration of 1 ng/mL; daily CL×Css/F; DEHP dose for MEHP in serum
Measured property: Daily maintenance dose (µg/kg)
# unit: µg/kg | format: bare number

Study these solved cases before continuing.
cpd_smiles=Cl[C@H]1[C@H](Cl)[C@@H](Cl)[C@H](Cl)[C@@H](Cl)[C@@H]1Cl measured_property="Daily maintenance dose" output_unit=µg/kg assay_value=2.4
cpd_smiles=O=C(O)C(F)(F)C(F)(F)C(F)(F)C(F)(F)C(F)(F)C(F)(F)C(F)(F)F measured_property="Daily maintenance dose" output_unit=µg/kg assay_value=0.18

Query block: # get_value(readout='Daily maintenance dose', item= O=S(=O)(c1ccc(O)cc1)c1ccc(O)cc1 )
Result block: 122

Query block: Please do the same for O=S(=O)(O)C(F)(F)C(F)(F)C(F)(F)C(F)(F)C(F)(F)C(F)(F)C(F)(F)C(F)(F)F as well.
Result block: 0.0077
